Biological target: recombinant homotrimeric HA A/Egypt/3300-NAMRU3/08 H5N1 (Influenza A virus A/Egypt/3300-NAMRU3/2008(H5N1))
Test: protein microarray, purified IgG, trimeric HA
Settings: remark: other sources report otherwise
// assign rule met if Trimeric HA Binding: RLU falls strictly below 10000 RLU, else rule not met (ties count as rule not met)

| binder | class |
| --- | --- |
| TCN-558 (5248_H10b) (antibody, V domains shown) VH: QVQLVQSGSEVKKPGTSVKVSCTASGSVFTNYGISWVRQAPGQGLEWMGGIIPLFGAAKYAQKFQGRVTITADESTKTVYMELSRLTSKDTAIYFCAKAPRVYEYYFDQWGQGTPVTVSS VL: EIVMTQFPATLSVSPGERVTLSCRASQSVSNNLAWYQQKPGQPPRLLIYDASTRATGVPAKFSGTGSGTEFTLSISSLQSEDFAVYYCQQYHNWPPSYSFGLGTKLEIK | rule not met |
| TCN-530 (5248_H10a) (antibody, V domains shown) VH: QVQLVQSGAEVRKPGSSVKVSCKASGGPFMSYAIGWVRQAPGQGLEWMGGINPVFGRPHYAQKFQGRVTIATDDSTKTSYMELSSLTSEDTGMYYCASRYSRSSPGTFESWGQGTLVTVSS VL: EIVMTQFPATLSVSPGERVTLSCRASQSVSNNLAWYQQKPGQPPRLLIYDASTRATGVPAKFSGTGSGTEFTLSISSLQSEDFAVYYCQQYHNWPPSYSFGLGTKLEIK | rule not met |
| TCN-536 (5095_N01) (antibody, V domains shown) VH: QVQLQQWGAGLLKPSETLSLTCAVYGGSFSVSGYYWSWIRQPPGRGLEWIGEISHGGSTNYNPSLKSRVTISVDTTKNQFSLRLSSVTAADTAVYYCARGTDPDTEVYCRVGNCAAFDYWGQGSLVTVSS VL: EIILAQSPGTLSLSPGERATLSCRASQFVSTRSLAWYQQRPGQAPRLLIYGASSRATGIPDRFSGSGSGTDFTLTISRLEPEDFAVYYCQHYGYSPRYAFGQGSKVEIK | rule met |
| TCN-546 (5089_L08) (antibody, V domains shown) VH: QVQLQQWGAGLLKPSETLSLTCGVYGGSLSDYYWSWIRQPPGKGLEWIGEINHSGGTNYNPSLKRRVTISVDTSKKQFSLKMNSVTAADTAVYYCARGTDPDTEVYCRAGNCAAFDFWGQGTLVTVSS VL: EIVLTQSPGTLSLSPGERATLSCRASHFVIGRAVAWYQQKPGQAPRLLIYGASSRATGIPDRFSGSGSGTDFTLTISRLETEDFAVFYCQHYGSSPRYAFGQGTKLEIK | rule not met |
| TCN-527 (5086_C06) (antibody, V domains shown) VH: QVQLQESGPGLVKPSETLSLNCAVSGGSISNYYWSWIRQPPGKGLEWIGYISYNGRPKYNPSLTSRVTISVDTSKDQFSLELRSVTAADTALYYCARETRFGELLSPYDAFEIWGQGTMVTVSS VL: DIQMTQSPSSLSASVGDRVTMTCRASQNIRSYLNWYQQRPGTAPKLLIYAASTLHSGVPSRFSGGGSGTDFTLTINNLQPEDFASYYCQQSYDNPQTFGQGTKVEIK | rule not met |
